- Tested on: NCI-H460
- protocol: NCI tumour cell line growth inhibition, 48 h
Active and inactive are the calls of the source. No stated cut-off is given here; in the data, active = GI50 up to about 1.1 µM and inactive = higher.
Would you mind answering with one of these outcomes? class 1 = active, class 0 = inactive

Some solved cases for reference:
INSERT INTO assay_data (compound, classname) VALUES
  ('CCCc1c(O)nc2ccccc2c1O', 'class 0'),
  ('C=C(/C=C/C=C(/CCC=C(C)C)COC(C)=O)[C@@H]1CC[C@]2([C@H](CCCO)/C(=C(/C)C=O)CC[C@]2(C)O)[C@@H]1O', 'class 1'),
  ('Cc1nc(N)sc1C(=O)/C=C/c1ccc(/C=C/C(=O)c2sc(NC(=O)CCCCCCCCC(=O)Nc3nc(C)c(C(=O)/C=C/c4ccc(/C=C/C(=O)c5sc(N)nc5C)cc4)s3)nc2C)cc1', 'class 0'),
  ('O=C(Cc1nc2ccccc2s1)C(=O)Nc1ccc(Cl)cc1Cl', 'class 0');

Here is the next item to consider.
Data request: Tell me the recorded outcome of this test for N#CC(CCN1CCC(Nc2ccccc2)(c2nnnn2C2CCCCC2)CC1)(c1ccccc1)c1ccccc1 .
Data returned: class 0

---

- System: 786-0
- protocol: NCI tumour cell line growth inhibition, 48 h
Active and inactive are the calls of the source. Cut-off read from the data, not from the text of the source: active = GI50 up to about 1.1 µM and inactive = higher.
Respond with a class label; see TRUE for active, FALSE for inactive

Use these answered entries as a reference point.
INSERT INTO assay_data (compound, classname) VALUES
  ('CN(C)CC1CCCC/C1=N/O (centres undefined)', 'FALSE'),
  ('Cc1ccc(S(=O)(=O)C2c3nc4ccccc4cc3-c3nc4ccccc4nc32)cc1 (centres undefined)', 'FALSE'),
  ('CCOC(=O)c1ccc(-n2nnc(C(N)=O)c2O)cc1', 'FALSE'),
  ('FC(F)(F)c1nc(Br)[nH]c1C(F)(F)F', 'FALSE'),
  ('CCCCCNc1nonc1N', 'FALSE');

Data request: # lookup: test call for CC1=CC(O)CC(C)(C)C1/C=C/C(C)=C/C=C/C(C)=C/C=C/C=C(C)/C=C/C=C(C)/C=C/C1=C(C)CC(O)CC1(C)C (centres undefined)
Data returned: FALSE

Data request: Could you check what this test reported for CCn1c(CCCc2nc3c(=O)n(C)c(=O)n(C)c3[nH]2)nc2c1c(=O)n(C)c(=O)n2C ?
Data returned: FALSE

Data request: Answer briefly: the call reported for CN(O)C(=O)/C=C/c1ccc(OCc2cccc(Cl)c2)cc1 in this assay.
Data returned: FALSE

Data request: What was the test verdict on CS(=O)(=O)c1nc(-c2cc3c(c(S(C)(=O)=O)n2)CCC3)cc2c1CCC2 ?
Data returned: FALSE

Data request: Which result was noted for this compound in the test: CCCC(=O)Nc1cc2c3c(c1)CCCN3CCC2
Data returned: FALSE

Data request: Give the logged outcome of this assay for the following compound: CC(C)(C)OC(=O)n1c2ccccc2c2c(=O)nc(N3CCCCC3)sc21
Data returned: FALSE

Data request: What is the recorded call for this compound in the test? Cc1c(Cc2ccccc2)n(COCCCO)c(=O)[nH]c1=O
Data returned: FALSE

Data request: # lookup: test call for O=C(Cc1nc2ccccc2c(=O)n1-c1ccccc1Cl)c1ccncc1
Data returned: FALSE

Data request: In this assay, the call recorded for O=[N+]([O-])c1ccc(-c2csc(=[N+]3CCCCC3)s2)cc1 was what?
Data returned: FALSE

Data request: Which outcome was assigned to COc1ccc(C(=O)c2sc(N(C)C)nc2-c2ccccc2)cc1 in this test?
Data returned: FALSE

Data request: Record lookup: outcome of this test for c1coc(-c2nccc3c2[nH]c2ccccc23)c1 ?
Data returned: FALSE

Data request: Given C/C(=N\Nc1cc(CN2CCCC2)c(-c2ccc(Cl)cc2)nn1)C(=O)O , state the outcome it received in this test.
Data returned: FALSE

Data request: Please state the recorded outcome for this compound: COC(=O)C(=O)C(C(=O)C(=O)Nc1cccc(C(C)=O)c1)c1nc2ccc([N+](=O)[O-])cc2nc1O (centres undefined)
Data returned: FALSE

Data request: What call does the record list for CCC1C(=O)OCc2c1cc1n(c2=O)CCC12OCCO2 (centres undefined) ?
Data returned: FALSE

Data request: # fetch the recorded call for Cc1ccc(S(=O)(=O)CN2C(=O)C(c3ccccc3)(c3ccccc3)C23OC(c2ccc(Cl)cc2)=CC3=O)cc1 (centres undefined) here
Data returned: FALSE

Data request: Hi, do you know how c1ccc(COC[C@H]2C3OCC([C@H](OCc4ccccc4)[C@H]3OCc3ccccc3)N2Cc2ccccc2)cc1 (some centres undefined) came out in this test?
Data returned: FALSE

Data request: Please state the recorded outcome for this compound: CCC(CN(C)C)C(=O)c1ccco1 (centres undefined)
Data returned: FALSE

Data request: // outcome(item) with item = O=C(NS(=O)(=O)c1ccccc1)C(Cc1ccccc1)C(Cc1ccccc1)C(=O)NS(=O)(=O)c1ccccc1 (centres undefined)
Data returned: FALSE

Data request: # outcome recorded in this test, key = C=C1C(=O)[C@@]23CC[C@@H]4[C@@]5(C)CCC[C@@]4(OC5=O)[C@@]2(C)CC[C@@H]1C3
Data returned: TRUE

---

# reported GI50; entries follow
- Tested on: NCI-H460
- protocol: NCI tumour cell line growth inhibition, 48 h
The source made the active and inactive calls. Cut-off read from the data, not from the text of the source: active = GI50 up to about 1.1 µM and inactive = higher.

Recorded results for 2 compounds are shown here.
INSERT INTO assay_data (compound, result) VALUES
  ('COc1cc2c(cc1OC)C(=O)C1(C2)[C@H](c2ccccc2)C2C(=O)c3cc(OC)c(OC)cc3C2[C@H]1c1ccccc1 (some centres undefined)', '49.1 µM (inactive)'),
  ('CCOC(=O)c1ccc(-n2nnc(C(N)=O)c2O)cc1', '> 100 µM (inactive)');

Data request: Give the value of GI50 reported for the following: COc1ccc(/N=N/C(=N/NC(=O)c2ccccc2)c2ccc(N(CCC#N)CCC#N)cc2C)cc1
Data returned: 23.1 µM (inactive)

Data request: Look up and state reported GI50 for COc1cccc(-c2cc(O)c3ccccc3n2)c1
Data returned: 4.59 µM (inactive)

---

- System: HCT-116
- protocol: NCI tumour cell line growth inhibition, 48 h
Activity calls are given as the source filed them. No stated cut-off is given here; in the data, active = GI50 up to about 1.1 µM and inactive = higher.
recordedEndpoint: GI50

Use these answered entries as a reference point.
INSERT INTO results (molecule, systemname, recordedendpoint, result) VALUES
  ('CC(=O)NC1=C(C)C(=O)c2c(nc3n2CCC3OC(=O)c2ccccc2)C1=O (stereo not given)', 'HCT-116', 'GI50', '1.94 µM (inactive)'),
  ('O=C1Nc2ccccc2/C1=N/NC(=S)N1CCCCC1', 'HCT-116', 'GI50', '0.216 µM (active)'),
  ('COC1(OC)C=CC2C1C1C=CC2C1(OC)OC (stereo not given)', 'HCT-116', 'GI50', '> 100 µM (inactive)'),
  ('COC(=O)C(C(=O)C(=O)Nc1cccc([N+](=O)[O-])c1)c1nc2ccc([N+](=O)[O-])cc2nc1O (stereo not given)', 'HCT-116', 'GI50', '> 100 µM (inactive)'),
  ('COC(=O)C(=O)C(C(=O)C(=O)Nc1cccc(C(C)=O)c1)c1nc2ccc([N+](=O)[O-])cc2nc1O (stereo not given)', 'HCT-116', 'GI50', '> 100 µM (inactive)'),
  ('Cc1c2n(c3ccccc13)CC1C2N(C)OC1(C)C (stereo not given)', 'HCT-116', 'GI50', '> 100 µM (inactive)');

Data request: Complete the entry with GI50 for Cc1cc(S(=O)(=O)NC2=NCc3nc4ccccc4n32)c(S)cc1Cl
Data returned: 18.3 µM (inactive)

Data request: Entry COc1cc2c(c(OC)c1OC)-c1ccc(SC)c(=O)cc1[C@@H](NC(=O)C(F)(F)F)CC2 needs its GI50 filled in; supply it.
Data returned: < 0.01 µM (active)

Data request: State its GI50: Fc1ccc(C(OCCN2CC3CC2CN3CCCc2ccccc2)c2ccc(F)cc2)cc1 (stereo not given)
Data returned: 5.86 µM (inactive)

Data request: Look up and state reported GI50 for COc1ccc2c(c1)-c1[nH]c3ccc(OC)cc3c1CC2
Data returned: 17.1 µM (inactive)

---

- Test system: OVCAR-3
- protocol: NCI tumour cell line growth inhibition, 48 h
Active and inactive are the calls of the source. Rule as the data show it: active = GI50 up to about 1.1 µM and inactive = higher.
Respond only with the outcome that fits, drawn from 1 for active, 0 for inactive

Before answering, review these 10 worked examples.
INSERT INTO measurements (molecule, classname) VALUES
  ('COC(=O)c1cc(O)nc(O)n1', 0),
  ('c1c[nH]c(CN2CCN(Cc3ncc[nH]3)CC2)n1', 0),
  ('COC(=O)C(Cc1ccccc1)NC(=O)CCCNC(=O)OCc1ccccc1 (stereo unspecified)', 0),
  ('O=C(O)CC12CC3CC(CC(O)(C3)C1)C2', 0),
  ('O=c1c(C(c2ccc(/C=C/c3ccccc3)cc2)c2c(O)oc3ccccc3c2=O)c(O)oc2ccccc12', 0),
  ('O=C(O)CC(Sc1ccccc1)c1ccccc1 (stereo unspecified)', 0),
  ('CCOc1cc2cnc3c4cc(OC)c(OC)cc4ccc3c2cc1OC', 0),
  ('COc1cc2c(c(OC)c1OC)-c1ccc(SC)c(=O)cc1[C@@H](NC(=O)C(F)(F)F)CC2', 1),
  ('c1coc(-c2nccc3c2[nH]c2ccccc23)c1', 0),
  ('CCCc1c(O)nc2ccccc2c1O', 0);

// next entry
Data request: Which outcome was entered for the molecule Cc1[nH]c2ccccc2c1C1=NO/C(=N\O)C(c2c(C)[nH]c3ccccc23)C1 (stereo unspecified) in this test?
Data returned: 0
